Give Primary assay EC50 (cAMP), Mean pM GLP-1R for every item shown.
- system.under.test: GLP-1 receptor (human, UniProt P43220 24-463)
- measurement.description: cell-based or functional assay
Starred links: 1 amine or outer side, 2 acyl side, 3 side chain; linkers in the order of their positions; H or OH if unused. Non-standard residues stand in square brackets, D forms with d. Groups on a side chain read outwards from the residue. Primed or numbered codes have the meaning given here. No end group written: not given here. *: point of attachment. γGlu = O=C(O)[C@H](CCC(=O)[*:2])N[*:1]; Stearoyl = CCCCCCCCCCCCCCCCCC(=O)*; αMeF = C[C@](N)(Cc1ccccc1)C(=O)O; αMeK = C[C@](N)(CCCCN)C(=O)O; αMeS = C[C@](N)(CO)C(=O)O; PEG2′ = not defined here; Aib = CC(C)(N)C(=O)O
Field: value (include unit after the number)

>>> recorded_value("H[Aib]EGS[αMeF]TSDVSK([PEG2′-PEG2′-PEG2′-Stearoyl])YLEGEAA[αMeK]E[αMeF]IA[αMeF]VVEGG-NH2 [SEQ ID NO 64]")
"1.3 pM"
>>> recorded_value("H[Aib]EGS[αMeF]TSDVSS[αMeF]LEGEAAK([PEG2′-PEG2′-γGlu-Stearoyl])E[αMeF]IA[αMeF]VVKGG-NH2 [SEQ ID NO 40]")
"1170 pM"
>>> recorded_value("H[Aib]EGS[αMeF]TSDV[αMeS]S[αMeF]LEGEAAAEFIK([PEG2′-PEG2′-γGlu-Stearoyl])WVVEGG-NH2 [SEQ ID NO 69]")
"53 pM"
>>> recorded_value("H[Aib]EGS[αMeF]TSDVSK([PEG2′-PEG2′-γGlu-Stearoyl])YLEGEAAEE[αMeF]IA[αMeF]VVEGG-NH2 [SEQ ID NO 58]")
"4720 pM"

// query Primary assay EC50 (cAMP), Mean pM GLP-1R value for entry H[Aib]EGS[αMeF]TSDV[αMeS]SYLEGEAAK([PEG2′-PEG2′-γGlu-Stearoyl])E[αMeF]IA[αMeF]VV[αMeK]GG-NH2 [SEQ ID NO 47]
43.3 pM

Data origin, for the record: patent US20200079833A1
